- experimental_system: 26S proteasome β5 subunit (Oryctolagus cuniculus, UniProt G1T4Q9)
- Sequence (G1T4Q9 1-263): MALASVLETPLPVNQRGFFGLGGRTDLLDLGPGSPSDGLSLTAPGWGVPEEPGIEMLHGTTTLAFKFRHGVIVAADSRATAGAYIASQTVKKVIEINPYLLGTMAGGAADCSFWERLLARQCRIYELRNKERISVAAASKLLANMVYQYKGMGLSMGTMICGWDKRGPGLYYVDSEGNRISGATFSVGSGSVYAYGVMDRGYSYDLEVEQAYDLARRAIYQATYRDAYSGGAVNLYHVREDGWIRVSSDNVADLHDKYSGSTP
property_label: pIC50
// returns pIC50 (minus log10 of molar concentration), number only

Tested system 26S proteasome β5 subunit (Oryctolagus cuniculus, UniProt G1T4Q9); pIC50 recorded for CC(C)C[C@H](NC(=O)[C@H](Cc1ccccc1)NC(=O)[C@H](Cc1cc(C(F)(F)F)cc(C(F)(F)F)c1)NC(=O)[C@H](Cc1ccccc1)N=[N+]=[N-])C(=O)[C@@]1(C)CO1 was 6.89

Form field, pIC50 with 26S proteasome β5 subunit (Oryctolagus cuniculus, UniProt G1T4Q9), item CC1=CC(C)=[N+]2C1=C(CCCCc1cn([C@@H](Cc3ccccc3)C(=O)N[C@@H](Cc3ccccc3)C(=O)N[C@@H](Cc3c(F)c(F)c(F)c(F)c3F)C(=O)N[C@@H](CC(C)C)C(=O)[C@@]3(C)CO3)nn1)c1c(C)cc(C)n1[B-]2(F)F : 6.52

More entries:
Reported pIC50 (26S proteasome β5 subunit (Oryctolagus cuniculus, UniProt G1T4Q9)) for entry CC(C)C[C@H](NC(=O)[C@H](Cc1cc(C(F)(F)F)cc(C(F)(F)F)c1)NC(=O)c1cnccn1)B1OC2C[C@@H]3C[C@@H](C3(C)C)[C@]2(C)O1 (some centres unmarked) is 8.52

Noted pIC50 for CC(C)C[C@H](NC(=O)[C@H](Cc1ccccc1)NC(=O)[C@H](Cc1c(F)c(F)c(F)c(F)c1F)NC(=O)[C@H](Cc1ccccc1)N=[N+]=[N-])C(=O)[C@@]1(C)CO1 , tested on 26S proteasome β5 subunit (Oryctolagus cuniculus, UniProt G1T4Q9): 6.70

Record CC(C)C[C@H](NC(=O)[C@H](Cc1cc(C(F)(F)F)cc(C(F)(F)F)c1)NC(=O)[C@H](Cc1ccccc1)NC(=O)[C@H](Cc1ccccc1)N=[N+]=[N-])C(=O)[C@@]1(C)CO1 ; system 26S proteasome β5 subunit (Oryctolagus cuniculus, UniProt G1T4Q9); pIC50 = 7.00

* * *

- experimental_system: 26S proteasome β2 subunit (Oryctolagus cuniculus)
- Sequence (G1SWK8 1-271): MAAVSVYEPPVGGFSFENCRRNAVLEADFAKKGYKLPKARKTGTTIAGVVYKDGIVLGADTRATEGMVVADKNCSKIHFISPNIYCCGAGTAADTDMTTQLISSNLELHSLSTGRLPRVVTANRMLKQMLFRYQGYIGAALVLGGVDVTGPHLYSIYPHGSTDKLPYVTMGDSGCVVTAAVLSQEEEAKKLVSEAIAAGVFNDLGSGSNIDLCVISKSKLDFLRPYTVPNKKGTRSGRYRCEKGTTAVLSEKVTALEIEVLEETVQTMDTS
property_label: IC50

// below: answered compounds
Tested system 26S proteasome β2 subunit (Oryctolagus cuniculus); IC50 recorded for CC(C)C[C@H](NC(=O)[C@H](Cc1cc(C(F)(F)F)cc(C(F)(F)F)c1)NC(=O)[C@H](Cc1ccccc1)NC(=O)[C@H](Cc1ccccc1)N=[N+]=[N-])C(=O)[C@@]1(C)CO1 was > 15 µM

Case CC(C)C[C@H](NC(=O)[C@H](Cc1ccccc1)NC(=O)[C@H](Cc1c(F)c(F)c(F)c(F)c1F)NC(=O)[C@H](Cc1ccccc1)N=[N+]=[N-])C(=O)[C@@]1(C)CO1 , 26S proteasome β2 subunit (Oryctolagus cuniculus), IC50 recorded as > 15 µM

We now examine a further compound.
// IC50 (26S proteasome β2 subunit (Oryctolagus cuniculus)) for CC(C)C[C@H](NC(=O)[C@H](Cc1ccccc1)NC(=O)[C@H](Cc1cc(C(F)(F)F)cc(C(F)(F)F)c1)NC(=O)[C@H](Cc1ccccc1)N=[N+]=[N-])C(=O)[C@@]1(C)CO1 = > 15 µM

Where do the numbers come from? From paper PMC3037272.
